# assayTarget: Cholecystokinin receptor type A (Rattus norvegicus)
# assayProcedure: Half-maximal inhibition of [125I]CCK-8 binding to cholecystokinin receptor from rat pancreatic tissue
propertyLabel: pIC50
Answers are plain numbers, as −log10 of the molar value.

Study these solved cases before continuing.
Value of measured pIC50 for the entry CN1C(=O)C(N)N=C(c2ccccc2F)c2ccccc21 (stereo not drawn) : 4.24

pIC50 in this record for CC(C)CCC(=O)N[C@H]1N=C(c2ccccc2)c2ccccc2N(C)C1=O : 6.11

Data point: CN1C(=O)[C@@H](NC(=O)/C=C/c2ccccc2)N=C(c2ccccc2)c2ccccc21 ; pIC50 = 9.52

Quick note, pIC50 for CN1C(=O)C(NC(=O)c2ccc(Cl)cc2N)N=C(c2ccccc2)c2ccccc21 (stereo not drawn) landed at 8.05

Now for a further compound.
The recorded pIC50 for CN1C(=O)C(NC(=O)[C@H](Cc2ccccc2)NC(=O)OC(C)(C)C)N=C(c2ccccc2F)c2ccccc21 (stereo partly drawn) is 6.47

----------
# assayTarget: UniProt P30551
# Sequence (P30551 whole entry): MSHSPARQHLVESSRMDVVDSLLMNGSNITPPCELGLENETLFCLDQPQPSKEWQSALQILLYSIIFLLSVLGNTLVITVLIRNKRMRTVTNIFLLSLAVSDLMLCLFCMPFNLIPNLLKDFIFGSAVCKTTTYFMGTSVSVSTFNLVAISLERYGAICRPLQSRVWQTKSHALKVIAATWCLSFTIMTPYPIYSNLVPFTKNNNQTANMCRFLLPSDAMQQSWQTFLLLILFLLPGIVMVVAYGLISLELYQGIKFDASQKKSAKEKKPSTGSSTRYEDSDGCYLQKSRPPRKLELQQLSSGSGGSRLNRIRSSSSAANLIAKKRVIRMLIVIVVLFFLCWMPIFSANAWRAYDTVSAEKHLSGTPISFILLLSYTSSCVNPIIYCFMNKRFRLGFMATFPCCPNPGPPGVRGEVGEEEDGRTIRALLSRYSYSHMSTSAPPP
# assayProcedure: Half-maximal inhibition of [125I]CCK-33 binding to cholecystokinin A receptor from rat pancreatic tissue
Binarize IC50 at 0.1 µM; below is Satisfied, at or above is Not satisfied.

Example cases with answers are listed next.
(Q) Report whether reported IC50 is lower than 0.1 µM (strictly) for CC(C)(C)OC(=O)N[C@H](Cc1c[nH]c2ccccc12)C(=O)NC1N=C(c2ccccc2)c2ccccc2NC1=O (stereo partly specified)
(A) Not satisfied

(Q) In plain terms, does O=C(NC1N=C(c2ccccc2F)c2ccccc2NC1=O)c1cc2ccccc2[nH]1 (stereo unspecified) come in under 0.1 µM for IC50?
(A) Satisfied

(Q) Record O=C(NC1N=C(c2ccccc2F)c2ccccc2NC1=O)c1ccc[nH]1 (stereo unspecified) : is its IC50 strictly below 0.1 µM?
(A) Not satisfied

(Q) I wonder whether CN1C(=O)[C@@H](NC(=O)c2ccc(I)cc2)N=C(c2ccccc2F)c2ccccc21 has IC50 below 0.1 µM. Can you tell?
(A) Satisfied

(Q) Hello, is IC50 of the following molecule strictly smaller than 0.1 µM? O=C(NC1N=C(c2ccccc2)c2ccccc2NC1=O)c1cccc(Cl)c1 (stereo unspecified)
(A) Satisfied

Continuing:
(Q) Please indicate whether the reported IC50 of CC(C)(C)OC(=O)N[C@H](Cc1ccccc1)C(=O)NC1N=C(c2ccccc2)c2ccccc2NC1=O (stereo partly specified) is strictly below 0.1 µM.
(A) Not satisfied

(Q) Item COc1ccc(C(=O)NC2N=C(c3ccccc3F)c3ccccc3NC2=O)cc1 (stereo unspecified) : IC50 beneath 0.1 µM, strictly?
(A) Satisfied

(Q) Does CCCCCc1ccc(C(=O)NC2N=C(c3ccccc3F)c3ccccc3N(C)C2=O)cc1 (stereo unspecified) have IC50 strictly under 0.1 µM?
(A) Not satisfied

(Q) Does the reported IC50 of the following molecule sit strictly below 0.1 µM? CN1C(=O)C(NC(=O)c2ccc(Cl)cc2)N=C(c2ccccc2F)c2ccccc21 (stereo unspecified)
(A) Satisfied

(Q) Hello, is IC50 of the following molecule strictly smaller than 0.1 µM? O=C(NC1N=C(c2ccccc2)c2ccccc2NC1=O)c1cnccn1 (stereo unspecified)
(A) Not satisfied
